Test system: Fonsecaea pedrosoi
test_name: Antimicrobial activity against Fonsecaea pedrosoi isolates after 72 hrs by CLSI M38-A2 protocol method
Format: functional
Starred links: 1 amine or outer side, 2 acyl side, 3 side chain; linkers in the order of their positions; H or OH if unused. Positions of bridges follow the written chain, without caps; N, C: chain ends. Non-standard residues stand in square brackets, D forms with d. Residues, ends and D or L forms follow the SMILES beside them. *: point of attachment. pTerphenylCO(4''-OnC5H11) = CCCCCOc1ccc(-c2ccc(-c3ccc(C(=O)*)cc3)cc2)cc1; Orn(4R-OH,5R-OH) = O=C([C@H](C[C@@H](O)[C@@H](O)N[*:3])N[*:1])[*:2]; hTyr(3S-OH,4S-OH) = N[C@H](C(=O)O)[C@H](O)[C@@H](O)c1ccc(O)cc1; Pro(3S-OH,4S-Me) = C[C@H]1CN[C@H](C(=O)O)[C@H]1O; Hyp = O=C(O)[C@@H]1C[C@@H](O)CN1
Item-by-item account of MIC50
The number alone won't do; follow it with the unit.

Solved entries:
INSERT INTO results (molecule, system_tested, parameter, recorded_value) VALUES
  ('OC(Cn1cncn1)(Cn1cncn1)c1ccc(F)cc1F', 'Fonsecaea pedrosoi', 'MIC50', '32 µg/mL'),
  ('C[C@@H]1[C@H](O)[C@@H](C)/C=C/C=C/C=C/C=C/C=C/C=C/C=C/[C@H](O[C@@H]2O[C@H](C)[C@@H](O)[C@H](N)[C@@H]2O)C[C@@H]2O[C@](O)(C[C@@H](O)C[C@@H](O)[C@H](O)CC[C@@H](O)C[C@@H](O)CC(=O)O[C@H]1C)C[C@H](O)[C@H]2C(=O)O', 'Fonsecaea pedrosoi', 'MIC50', '1 µg/mL');

# ---- query molecule ----
Quick note, MIC50 for CCCCCOc1ccc(-c2ccc(-c3ccc(C(=O)N[C@H]4C[C@@H](O)[C@@H](O)NC(=O)[C@@H]5[C@@H](O)[C@@H](C)CN5C(=O)[C@H]([C@@H](C)O)NC(=O)[C@H]([C@H](O)[C@@H](O)c5ccc(O)cc5)NC(=O)[C@@H]5C[C@@H](O)CN5C(=O)[C@H]([C@@H](C)O)NC4=O)cc3)cc2)cc1 [ANIDULAFUNGIN] ({pTerphenylCO(4''-OnC5H11)}-[Orn(4R-OH,5R-OH)]T[Hyp][hTyr(3S-OH,4S-OH)]T[Pro(3S-OH,4S-Me)]; lactam 1-C) landed at 8 µg/mL
